This section presents compounds with their documented composite z-score values.
- study.system: Albumin (Bos taurus)
- method.summary: bovine serum albumin binders on microarray, profiling panel, artefact control for SMM control protein annotation, biochemical, small-molecule microarray, Alexa647 label, 635/667 nm fluorescence (AID 1118);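 note: score merges 667 nm emission intensity and signal-to-noise per printed compound spot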
- test.conditions: BSA-A647 binding, fluorescence 635 nm, higher = more signal
// return just the number, without any unit appended

Worked set:
- C=C(/C(=C/C[C@H](OC(C)=O)c1ccccc1OCCO)c1cnc2ccccc2c1)C(C)C: 0.0816
- COc1ccc(CCNC(=O)[C@@]2(Sc3ccc(C)cc3)CC(=O)N(C(C)C)[C@@H]2c2ccc(CO)cc2I)cc1: -0.235
- C=C(COC)/C(=C/C[C@@H](OC(=O)c1ccncc1)c1ccc(CO)o1)c1cc(C(=O)OC)ccc1OC: 0.0436
- CN(C)C(=O)[C@]1(Cc2ccccc2N=[N+]=[N-])N=C(c2ccc(OCCCO)cc2)O[C@@H]1c1ccccc1N=[N+]=[N-]: 0.872
- O=C1O[C@H](c2ccccc2)[C@H](c2ccccc2)N2[C@H]1[C@@H](C(=O)N1CCCCCCC1)[C@]1(C(=O)Nc3ccc(C#CCCO)cc31)[C@H]2c1ccccc1OCCO: 0.536

Q: // composite z-score lookup, key: "COCCOC(=O)N1C(=O)[C@@]2(c3cc(C#CCNC(N)=O)ccc31)[C@H](C(=O)N1CCN(c3ncccn3)CC1)[C@H]1C(=O)O[C@H](c3ccccc3)[C@H](c3ccccc3)N1[C@@H]2c1ccc(OCCO)cc1"
A: 0.521

Q: Find the recorded composite z-score belonging to "NCCCCCNC(=O)[C@@H]1C[C@@H]2C(=O)N[C@@H](Cc3ccccc3)C(=O)N2[C@@H]1c1ccc(O)cc1" and report it.
A: 0.507
